- Tested on: SK-MEL-2 melanoma
- Protocol Text: NCI tumour cell line growth inhibition, 48 h
Outcome Measure: TGI (µM)

>>> val("CCCNCc1cc(C)cc2c1nc(N1CCNCC1)n2Cc1cc(C)c(F)c(C)c1")
28.1
>>> val("CCN(CCO)CCNc1ccc(C)c2sc3cc(Cl)ccc3c(=O)c12")
3.56
>>> val("O=C1c2ccccc2-c2c1c1ccccc1c(=O)n2CCNCCCNCCn1c2c(c3ccccc3c1=O)C(=O)c1ccccc1-2")
2.2

----------
Reported TGI by item:
- Tested on: MCF7 breast
- Protocol Text: NCI tumour cell line growth inhibition, 48 h
Outcome Measure: TGI

>>> val("CCCNCc1cc(C)cc2c1nc(N1CCNCC1)n2Cc1cc(C)c(F)c(C)c1")
"6.05 µM"
>>> val("COC(=O)C1=C(C)N2[C@H](C(=O)O)CS[C@@]2(C)[C@H](C(=O)OC)[C@H]1c1cccc([N+](=O)[O-])c1")
"> 100 µM"
>>> val("Oc1c(Br)cc(CN(Cc2cc(Br)c(O)c(Br)c2)C2CCCCC2)cc1Br")
"> 100 µM"
>>> val("C[C@@H]1C(=O)CC2(O)[C@@]13C[C@@H](OC(=O)[C@@H]3O)[C@@H](C)[C@@]21COC1=O (stereo partly drawn)")
"> 100 µM"
>>> val("O=c1cc(-c2ccccc2F)[nH]c2cc3c(cc12)OCO3")
"> 50.9 µM"
>>> val("Cn1c(N)nc2c(nc(OCc3ccccc3)n2C2OC(CO)C(O)C2O)c1=O (stereo not drawn)")
"> 100 µM"
>>> val("Clc1ccc(OCc2nnc3n2N=C(c2ccc(Cl)cc2Cl)CS3)c(Cl)c1")
"92.8 µM"
>>> val("Brc1ccc2c(c1)-c1nc3c(cc1CC2)CCc1ccc(Br)cc1-3")
"> 100 µM"

----------
- Test system: NCI-H522 lung
- Protocol Text: NCI tumour cell line growth inhibition, 48 h
Reported TGI by item:
Outcome Measure: TGI

>>> val("Nc1n[nH]c2ccccc12")
"> 100 µM"
>>> val("COC(=O)C1=C(C)N2[C@H](C(=O)O)CS[C@@]2(C)[C@H](C(=O)OC)[C@H]1c1cccc([N+](=O)[O-])c1")
"> 100 µM"
>>> val("CCOC(=O)c1[nH]c2nc(SC)nc(NC)c2c1N")
"> 100 µM"
>>> val("COC(=O)c1c(O)ccc2[nH]c(C)c(C#N)c12")
"> 100 µM"
>>> val("COc1ccc(CCCCl)c(C2=NCCc3ccccc32)c1")
"> 100 µM"
>>> val("CNc1ccc2c(c1)Cc1ccccc1-2")
"50.8 µM"
>>> val("COc1ccc(/C=N/Nc2nc3ccccc3c(=O)n2-c2ccccc2)c(OCc2ccccc2)c1")
"> 100 µM"
>>> val("CC1(C)OC(=O)C=C([O-])O1.CC1(C)OC(=O)C=C([O-])O1.O=c1c(O)c(-c2ccc([O-])cc2[O-])oc2cc(O)cc(O)c12.[Ti+4]")
"63 µM"
>>> val("CC(=O)c1c(C)n([O-])c2cc(C)c(C)cc2[n+]1=O")
"> 100 µM"
>>> val("COc1ccc(C2C(N)=NCC2c2ccccn2)cc1 (stereo not given)")
"> 100 µM"
>>> val("COc1cc(/C=C2\\CC3C4CC=C5CC(N6CCCC6)CC[C@]5(C)C4CC[C@]3(C)C2OC(C)=O)ccc1OCCN1CCCC1 (stereo not given in full)")
"3.25 µM"
>>> val("Nc1ccc(SC23CC4CC(CC(C4)C2)C3)cc1")
"> 100 µM"
>>> val("C[C@@H]1C(=O)CC2(O)[C@@]13C[C@@H](OC(=O)[C@@H]3O)[C@@H](C)[C@@]21COC1=O (stereo not given in full)")
"> 100 µM"
>>> val("CCCCCC(C(O)C#N)C(O)(C(F)(F)F)C(F)(F)F (stereo not given)")
"> 10 µM"
>>> val("C=C(COC(C)=O)CC(/C=C(\\C)CCC=C(C)C)OC(C)=O (stereo not given)")
"> 100 µM"
>>> val("O=C1c2c(c3c4ccc(Br)cc4oc3c3[nH]c4ccccc4c23)C(=O)N1O")
"> 100 µM"
>>> val("C=CCOc1c(Br)cc(Br)cc1Br")
"30.7 µM"
>>> val("CC1=C(C)C(=O)O[C@@H]([C@](C)(O)[C@]2(O)CC[C@@]3(O)[C@@H]4C[C@H]5O[C@]56CC=CC(=O)[C@]6(C)[C@H]4CC[C@]23C)C1")
"0.534 µM"
>>> val("O=C1c2ccccc2-c2cccc3ccc(Cc4ccccc4)c1c23")
"> 100 µM"
>>> val("COc1cc2c(cc1O)CC[n+]1cc3c(OC)c(OC)ccc3cc1-2")
"> 100 µM"

----------
- Tested on: SK-MEL-2 melanoma
- Protocol Text: NCI tumour cell line growth inhibition, 48 h
Reported TGI by item:
Outcome Measure: TGI (µM)

>>> val("CC1OC(n2cc(F)c(=O)[nH]c2=O)C(O[Si](C)(C)C(C)(C)C)C1O[Si](C)(C)C(C)(C)C (centres undefined)")
35.5
>>> val("COC(=O)NC/C=C\\c1nc(CC/C=C\\C(=O)OC2CC3CC(=O)O[C@@H](/C=C/CC(C)C)C[C@@H]4CCC(C)C(C[C@@H](OC)CC(C2)O3)O4)co1 (some centres undefined)")
94.1

----------
Reported TGI by item:
- System: LOX IMVI melanoma
- Protocol Text: NCI tumour cell line growth inhibition, 48 h
Outcome Measure: TGI

>>> val("CN(C)CCNC(=O)Nc1c(C#N)[n+]([O-])c2cc(Cl)c(Cl)cc2[n+]1[O-]")
"> 100 µM"
>>> val("O=c1cc(-c2ccccc2F)[nH]c2cc3c(cc12)OCO3")
"> 78.8 µM"
>>> val("COc1ccc(N2C(=O)C3c4[nH]c5ccccc5c4C4C(C)CCCC4C3C2=O)cc1 (stereo not given)")
"> 100 µM"
>>> val("CC1=CCC[C@H]2[C@](C)(CC3=CC(=O)C4SCCSC4C3=O)[C@@H](C)CC[C@]12C (stereo not given in full)")
"24.3 µM"
>>> val("Oc1c2c(c(O)c3ccccc13)=N[C@@H](c1ccccc1)[C@H](c1ccccc1)N=2")
"> 100 µM"
>>> val("C=CC(=O)N1CCN(c2ncnc3c(F)c(-c4c(O)cccc4F)c(Cl)cc23)CC1")
"31 µM"
>>> val("CC1=C(C)C(=O)O[C@@H]([C@](C)(O)[C@]2(O)CC[C@@]3(O)[C@@H]4C[C@H]5O[C@]56CC=CC(=O)[C@]6(C)[C@H]4CC[C@]23C)C1")
"1.38 µM"
>>> val("CCOC(=O)C1=C(C)NC(=O)N([N+](=O)[O-])C1c1ccccc1C(F)(F)F (stereo not given)")
"> 100 µM"
>>> val("NC(CCSCC(F)F)C(=O)O (stereo not given)")
"> 100 µM"
>>> val("Cc1c(-c2nc(N)nc(C3CC3)c2C)nc(N)nc1C1CC1")
"> 100 µM"
>>> val("FC(F)(F)c1ccc2c(Nc3cccc(C4CC(c5ccccc5)=NN4c4ccc(Cl)cc4)c3)ccnc2c1 (stereo not given)")
"3.81 µM"
>>> val("OCC1OC(O[C@H]2CN3[C@H](O)[C@@H](O)[C@H](O)[C@H]3C2O)C(O)C(O)C1O (stereo not given in full)")
"> 100 µM"
>>> val("Nc1n[nH]c2ccccc12")
"> 100 µM"
>>> val("Cc1sc(C)c(-c2ccc(CO)o2)c1-c1ccc(CO)o1")
"> 100 µM"
>>> val("O=c1c2cc3c(=O)n(CCc4ccccc4CO)c(=O)c3cc2c(=O)n1CCc1ccccc1CO")
"> 100 µM"
>>> val("CCOC(=O)/C(=C/c1ccco1)P(=O)(OCC)OCC")
"> 100 µM"
>>> val("CCC1C(=O)OCc2c1cc1n(c2=O)CCC12OCCO2 (stereo not given)")
"> 100 µM"
>>> val("COc1ccc(/C(C)=N/NC(=S)N(C)C)c(O)c1")
"12.4 µM"
>>> val("O=C1NN=C(c2c[nH]c3ccccc23)CC1NCc1ccccc1 (stereo not given)")
"> 100 µM"
>>> val("C=CC(=O)Nc1cccc(Nc2nc(Nc3ccc(OCCOC)cc3)ncc2F)c1")
"3.62 µM"
>>> val("C=C1C(=O)O[C@H]2[C@H]1CC/C(COC(=O)c1cc3cc(OC)ccc3[nH]1)=C\\CC[C@@]1(C)O[C@@H]21")
"1.34 µM"
>>> val("CCOC1NC(=O)c2ccccc21 (stereo not given)")
"> 100 µM"
>>> val("c1cc[c]([Sn]([S]c2cccc3cccnc23)([c]2ccccc2)[c]2ccccc2)cc1")
"0.0304 µM"
>>> val("CC1=C(C(=O)NNC(=O)CC#N)CC(C(=O)NNC(=O)CC#N)=C(C)N1")
"> 100 µM"
>>> val("Nc1ccc(SC23CC4CC(CC(C4)C2)C3)cc1")
"> 100 µM"
>>> val("CCOC(=O)[C@@H](C)C[C@H](Cc1ccccc1)NC(=O)c1csc([C@@H](C[C@H](C(C)C)N(C)C(=O)[C@@H](NC(=O)[C@H]2CCCCN2C)C(C)(C)C)OC(C)=O)n1")
"> 16.7 µM"
>>> val("NC(=O)NC(=NCc1ccccc1)NCc1ccccc1")
"> 100 µM"
>>> val("CCOc1cccc2nc3cccc(C(=O)NCCN(C)C)c3nc12")
"2.11 µM"
>>> val("CNC(=O)c1ccc(-c2cnc3ncc(Cc4ccc5ncccc5c4)n3n2)cc1F")
"> 100 µM"
>>> val("CCN(CCO)CCNc1ccc(C)c2sc3cc(Cl)ccc3c(=O)c12")
"3.06 µM"
